Where do the numbers come from? From PubChem BioAssay AID623870.

Target: Transforming acidic coiled-coil-containing protein 3 (Homo sapiens) (UniProt Q9Y6A5)
Assay: inhibitors of ARNT PAS-B binding to TACC3 – biochemical, AlphaScreen, single concentration, primary screen (AID 623870);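 further: 0% = complete ARNT plus TACC3 wells and 100% = ARNT alone without TACC3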
Settings: AlphaScreen His-ARNT PAS-B/GST-TACC3 binding, luminescence; at 9.99 µM; active compounds read high; TACC3 fragment carries E629A point mutation
About 2,600 (0.67%) of roughly 390,000 compounds were called active. The sample holds actives, similar compounds and a random draw of the others, so the mix is not that of the screen.
measurement name: inhibition (%)

>>> endpoint_result("Cc1ccccc1S(=O)(=O)N1C[C@H](O)COC[C@H]2O[C@H](CC(=O)N3CCCCC3)CC[C@@H]21")
1.95
>>> endpoint_result("COc1ccc(S(=O)(=O)Nc2cccc3c2O[C@@H](CN(C)S(=O)(=O)c2ccccc2)[C@@H](C)CN([C@@H](C)CO)C3=O)cc1")
1.77
>>> endpoint_result("CCCN(C)C[C@@H]1OCCCC[C@@H](C)Oc2ccc(NS(=O)(=O)c3c(C)noc3C)cc2C(=O)N([C@H](C)CO)C[C@@H]1C")
-10.1
>>> endpoint_result("C[C@@H]1CCCCO[C@H](CN(C)C(=O)CCC(F)(F)F)[C@@H](C)CN([C@@H](C)CO)C(=O)c2cc(NC(=O)c3ccncc3)ccc2O1")
11

---

Molecular target: Transforming acidic coiled-coil-containing protein 3 (Homo sapiens) (UniProt Q9Y6A5)
Test: inhibitors of ARNT PAS-B binding to TACC3 – biochemical, AlphaScreen, single concentration, primary screen (AID 623870);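 further: 0% = complete ARNT plus TACC3 wells and 100% = ARNT alone without TACC3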
Conditions: AlphaScreen His-ARNT PAS-B/GST-TACC3 binding, luminescence; at 9.99 µM; TACC3 fragment carries E629A point mutation
The whole screen tested about 390,000 compounds, of which about 2,600 (0.67%) were called active.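 The calls were made as follows: active = mean inhibition of replicates at least 50% and at least half of replicates each reaching 50%; inconclusive = half or more replicates reach 50% but mean below 50%; inactive = the rest.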 This is one part of a sample in which actives are shown more often than they occur.
Outcomes: active, inactive

>>> answer_label("O=C(Nc1nnc(C2=COCCO2)o1)c1ccc([N+](=O)[O-])s1")
"inactive"
>>> answer_label("COc1ccccc1C(=O)Nc1ccc2c(c1)C(=O)N(C)C[C@@H](OC)[C@@H](C)CN(C)[C@H](C)CO2")
"inactive"
>>> answer_label("CCCC#Cc1ccc2c(c1)O[C@@H](CN(C)C(=O)CC)[C@@H](C)CN([C@H](C)CO)S2(=O)=O")
"inactive"
>>> answer_label("C[C@@H]1CN([C@H](C)CO)C(=O)c2cc(NC(=O)Nc3ccc4c(c3)OCO4)ccc2O[C@@H]1CN(C)C(=O)Nc1ccc(F)cc1")
"inactive"
>>> answer_label("O=C(CCCO)N/N=C/c1cc(Br)ccc1O")
"active"
>>> answer_label("CCOC(=O)N1CCN(C(c2cccnc2)c2ccc3cccnc3c2O)CC1 (centres undefined)")
"active"
>>> answer_label("CCN1CCN(C(c2cccnc2)c2cc(Cl)c3cccnc3c2O)CC1 (centres undefined)")
"active"
>>> answer_label("CCCNC(=O)N(C)C[C@H]1Oc2ncc(-c3cccc(C#N)c3)cc2C(=O)N([C@@H](C)CO)C[C@@H]1C")
"inactive"
>>> answer_label("CCCNC(=O)C[C@@H]1CC[C@H]2[C@H](COc3ccc(NC(=O)CCC)cc3C(=O)N2C)O1")
"inactive"
>>> answer_label("O=C(COC(=O)CCCN1C(=O)c2cccc3cccc(c23)C1=O)NC1CCS(=O)(=O)C1 (centres undefined)")
"inactive"
>>> answer_label("O=C(NC[C@@H]1[C@@H](c2ccccc2)[C@@H](CO)N1Cc1ccccn1)C1CCC1")
"active"
>>> answer_label("CN(C[C@@H]1[C@H](c2ccccc2)[C@@H](CO)N1Cc1ccccn1)S(C)(=O)=O")
"inactive"
>>> answer_label("CCNC(=O)[C@H]1[C@H](CO)[C@H]2Cn3c(ccc(-c4cccc(OC)c4)c3=O)[C@H]2N1Cc1nccs1")
"inactive"
>>> answer_label("CCC(CC)c1nnc(NC(=O)C2=COCCO2)s1")
"inactive"
>>> answer_label("CCCNC(=O)N1C[C@@H](O)COC[C@H]2O[C@H](CC(=O)NCCCN3CCOCC3)CC[C@@H]21")
"inactive"
>>> answer_label("O=C(CCCN1C(=O)c2cccc3cccc(c23)C1=O)N1CCN(Cc2ccc3c(c2)OCO3)CC1")
"inactive"
>>> answer_label("O=C(CCNc1n[nH]c(=O)[nH]c1=O)N/N=C\\c1ccc(Br)cc1")
"inactive"
>>> answer_label("COCC(=O)Nc1ccc2c(c1)[C@@H]1C[C@H](CC(=O)NCc3ccc(Cl)cc3)O[C@H](CO)[C@@H]1O2")
"inactive"
>>> answer_label("CCCNC(=O)C[C@H]1C[C@@H]2c3cc(NC(=O)C4CCOCC4)ccc3O[C@@H]2[C@@H](CO)O1")
"inactive"

---

Biological target: Transforming acidic coiled-coil-containing protein 3 (Homo sapiens) (UniProt Q9Y6A5)
Assay: inhibitors of ARNT PAS-B binding to TACC3 – biochemical, AlphaScreen, single concentration, primary screen (AID 623870);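 further: 0% = complete ARNT plus TACC3 wells and 100% = ARNT alone without TACC3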
Conditions: AlphaScreen His-ARNT PAS-B/GST-TACC3 binding, luminescence; at 9.99 µM; active compounds read high; TACC3 fragment carries E629A point mutation
About 2,600 (0.67%) of roughly 390,000 compounds were called active. The sample holds actives, similar compounds and a random draw of the others, so the mix is not that of the screen.
A collection of molecules and their measured inhibition
measurement name: inhibition (%)

>>> endpoint_result("C[C@@H]1CN([C@H](C)CO)C(=O)Cc2cc(NC(=O)CCC(F)(F)F)ccc2O[C@@H]1CN(C)CC1CCCCC1")
2.83
>>> endpoint_result("Cc1cccc(NC(=O)C(C)N2C(=O)C3C4CC(C(Br)C4Br)C3C2=O)c1 (stereo not drawn)")
5.02
>>> endpoint_result("CC(OC(=O)CN1C(=O)COc2ccccc21)C(=O)NCc1ccc(F)cc1 (stereo not drawn)")
-23.2
>>> endpoint_result("COCC(=O)N1[C@H](CNC(=O)c2ccccn2)[C@H](c2ccccc2)[C@@H]1CO")
0.322
>>> endpoint_result("O=C(NCCCc1ccccc1)C(=O)NCC1OCCN1S(=O)(=O)c1ccccc1 (stereo not drawn)")
0.478
>>> endpoint_result("CN(C(=O)c1ccccc1)c1nccnc1C#N")
48.5
>>> endpoint_result("O=C(CN1C(=O)COc2ccccc21)Nc1ccc(F)cc1")
55.9
>>> endpoint_result("O=C(CN1C(=O)COc2ccc(Cl)cc21)Nc1ccc(N2CCOCC2)cc1")
2.76
>>> endpoint_result("ON=C1/C(=N\\O)CC2(C/C1=N/O)OCCO2")
59
>>> endpoint_result("CC=Cc1ccc2n(c1=O)C[C@H]1[C@H](CO)[C@@H](C(=O)NC3CCCC3)N(Cc3ccncc3)[C@@H]21 (mixture of isomers)")
7.61
>>> endpoint_result("C[C@@H]1CN([C@H](C)CO)C(=O)c2cc(NC(=O)Nc3ccccc3)ccc2O[C@@H](C)CCCCO[C@@H]1CN(C)S(=O)(=O)c1ccc(F)cc1")
-3.52
>>> endpoint_result("C[C@@H]1CN([C@H](C)CO)S(=O)(=O)c2ccc(-c3ccncc3)cc2O[C@@H]1CN(C)C(=O)CN(C)C")
12
>>> endpoint_result("CC(C)CC#Cc1cnc2c(c1)C(=O)N([C@H](C)CO)C[C@H](C)[C@H](CN(C)C(=O)Nc1ccccc1F)O2")
-1.64
>>> endpoint_result("O=C(O)C[C@@H]1C[C@@H]2c3cc(NC(=O)Nc4ccccc4)ccc3O[C@@H]2[C@H](CO)O1")
-4.96
>>> endpoint_result("C[C@@H]1CN([C@H](C)CO)S(=O)(=O)c2ccc(-c3cncnc3)cc2O[C@H]1CN(C)C(=O)Cc1ccccc1")
-17
>>> endpoint_result("Oc1ccc(N=Nc2nccs2)c(O)c1")
80.9
>>> endpoint_result("CC(C(=O)Nc1ccc(O)c(C(=O)O)c1)N1C(=O)/C(=C/c2cccs2)SC1=S (stereo not drawn)")
55.9
>>> endpoint_result("C[C@H]1CN([C@@H](C)CO)C(=O)c2cc(C3=CCCCC3)cnc2O[C@H]1CN(C)Cc1ccncc1")
-9.48

---

Each entry below carries its recorded inhibition.
Biological target: Transforming acidic coiled-coil-containing protein 3 (Homo sapiens) (UniProt Q9Y6A5)
Assay: inhibitors of ARNT PAS-B binding to TACC3 – biochemical, AlphaScreen, single concentration, primary screen (AID 623870);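 further: 0% = complete ARNT plus TACC3 wells and 100% = ARNT alone without TACC3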
Details: AlphaScreen His-ARNT PAS-B/GST-TACC3 binding, luminescence; at 9.99 µM; active compounds read high; TACC3 fragment carries E629A point mutation
The campaign covered roughly 390,000 compounds. About 2,600 (0.67%) were called active. Shown is part of a subset that was picked to be rich in actives.
measurement name: inhibition (%)

>>> endpoint_result("Cc1noc(C)c1NC(=O)Nc1ccc2c(c1)C(=O)N([C@@H](C)CO)C[C@H](C)[C@H](CN(C)S(=O)(=O)c1cn(C)cn1)OCCCC[C@@H](C)O2")
-9.38
>>> endpoint_result("CCS(=O)(=O)N1CCCCN2[C@@H](CO)[C@@H](c3ccc(-c4ccccc4)cc3)[C@@H]2C1")
-0.151
>>> endpoint_result("CN(C)C(=O)C[C@@H]1CC[C@@H](NS(=O)(=O)c2ccccc2)[C@H](CO)O1")
1.05
>>> endpoint_result("COCC(=O)N1C[C@@H](C)[C@H](OC)CN(C)C(=O)c2ccc(NC(=O)c3ccc(OC)cc3)cc2OC[C@@H]1C")
-7.16
>>> endpoint_result("CO[C@@H]1CC[C@@H]2CCOc3ccc(C#N)cc3C(=O)N(C)C[C@@H](C)C(=O)N(C)C[C@@H]1O2")
-7.05
>>> endpoint_result("Cc1cccc(-c2ccc([C@@H]3[C@@H](CO)N4CCCCN(S(=O)(=O)c5cccs5)C[C@H]34)cc2)c1")
14.3
>>> endpoint_result("O=C(C1CCCC1)N1[C@H](CO)[C@@H]2c3ccccc3N(S(=O)(=O)c3ccccc3)C[C@@H]21")
-1.74
>>> endpoint_result("COc1ccc(S(=O)(=O)N2C[C@@H](O)COC[C@H]3O[C@H](CC(=O)N[C@H]4CCN(Cc5ccccc5)C4)CC[C@@H]32)cc1")
-2.17
>>> endpoint_result("C[C@H]1CN([C@@H](C)CO)C(=O)c2cc(NC(=O)CCN3CCOCC3)ccc2O[C@@H]1CN(C)C(=O)Nc1ccc(C(F)(F)F)cc1")
26.6
>>> endpoint_result("CCOC(=O)c1cn[nH]c1NC(=S)Nc1ccccc1")
-4.6
>>> endpoint_result("CCCNC(=O)[C@H]1[C@H](CO)[C@H]2Cn3c(ccc(C4=CCCC4)c3=O)[C@H]2N1C(=O)CC")
-1.64
>>> endpoint_result("CC(=O)N1[C@@H](CO)[C@H](c2ccccc2)[C@@H]1CN(C)C(=O)CN1CCOCC1")
-11.7
>>> endpoint_result("COc1ccc(NC(=O)N2C[C@H](O)COC[C@H]3O[C@@H](CC(=O)N4CCN(C)CC4)CC[C@@H]32)cc1")
0.747
>>> endpoint_result("CCC(=O)Nc1ccc2c(c1)OC[C@H](C)N(C(=O)c1ccncc1)C[C@H](C)[C@H](OC)CN(C)C2=O")
6.95
>>> endpoint_result("CCC(=O)N1C[C@H](C)[C@H](OC)CN(C)C(=O)c2ccc(NS(C)(=O)=O)cc2OC[C@H]1C")
0.229
>>> endpoint_result("COc1ccc(Cc2nnc(N/N=C/c3ccccc3O)[nH]c2=O)cc1OC")
58.3
>>> endpoint_result("Cc1ccc(Cc2nnc(SCC(=O)Nc3ccccc3C)[nH]c2=O)cc1")
-1.06
